Reported melting point values for the following molecules.
Give just the numeric value; °C need not be written.

For this molecule ( `CCc1cccc(CC)c1N(COC)C(=O)CCl` ), measured melting point is 40

For this molecule ( `c1ccc(COc2ccc3[nH]ccc3c2)cc1` ), measured melting point is 102

For this molecule ( `CCCCCCCCC(=O)OCCCCCCC` ), measured melting point is -15.5

====

Reported boiling point values for the following compounds.
Give just the numeric value; °C need not be written.

Study these solved cases before continuing.
compound	measured quantity	measured value
Cc1ccccc1C=O	boiling point	200
CC(=O)OC(C)=O	boiling point	140
Cc1ccccc1CC=O	boiling point	221

For this compound ( `O=C(Cl)CCC(=O)Cl` ), measured boiling point is 193

For this compound ( `CN(C)P(=O)(N(C)C)N(C)C` ), measured boiling point is 232

For this compound ( `c1cscn1` ), measured boiling point is 118

For this compound ( `C=CCCCCCCCCCCCCCCCCCC` ), measured boiling point is 341

====

measured quantity: boiling point (°C)
Give just the numeric value; °C need not be written.

smi	endpoint unit	measured value
OC(c1ccccc1)(C(F)(F)F)C(F)(F)F	°C	160
CCCCCCCCCCCCCC	°C	254

For this molecule ( `Cc1ccc2nc(C)[nH]c2c1` ), measured boiling point is 350

====

Reported melting point values for the following molecules.
Give just the numeric value; °C need not be written.

Study these solved cases before continuing.
molecule	melting point, °C
Clc1cc(Cl)c2c(oc3c(Cl)cccc32)c1Cl	177
CN1CCNCC1	-6
CCCCCCCCCCCC(C)O (configuration not stated)	23
CCOC(=O)c1cccc([N+](=O)[O-])c1	47
CCCCC/C=C\C/C=C\CCCCCCCC(=O)OC	-35

For this molecule ( `ON=C(C(=NO)c1ccco1)c1ccco1` ), measured melting point is 167

For this molecule ( `Nc1cccc(C(=O)O)c1` ), measured melting point is 173

For this molecule ( `COC(=O)c1cccc(C)c1O` ), measured melting point is 29

====

measured quantity: boiling point (°C)
Give just the numeric value; °C need not be written.

Study these solved cases before continuing.
molecule	endpoint unit	boiling point
CC(=O)O	°C	118
ClCCBr	°C	107
CC(F)(F)F	°C	-47.5

For this molecule ( `Cc1cc(O)c(C(C)(C)C)cc1C` ), measured boiling point is 258

For this molecule ( CC1=CCC2C(C1)C2(C)C (stereo unspecified) ), measured boiling point is 170

For this molecule ( `CC(C)C#N` ), measured boiling point is 104

For this molecule ( `CC(C)NC(C)C` ), measured boiling point is 83.9

====

Reported log10 vapour pressure (mmHg) values for the following molecules.
Number only, please.

molecule	log10 vapour pressure (mmHg)
Cc1nn(C)c(OCC(=O)c2ccccc2)c1C(=O)c1ccc(Cl)cc1Cl	-6.44
C=CCCCC(C)C	1.4
Clc1ccc(Cl)c(-c2ccc(Cl)c(Cl)c2)c1	-4.39
COC(=O)c1c(Cl)c(Cl)c(C(=O)OC)c(Cl)c1Cl	-5.6

For this molecule ( `CCCCCCCCC(=O)OCCCC` ), measured log10 vapour pressure (mmHg) is -1.67

For this molecule ( `COCCO` ), measured log10 vapour pressure (mmHg) is 0.978

For this molecule ( `CCCCCCCCCCCCCCCCCBr` ), measured log10 vapour pressure (mmHg) is -4.74

For this molecule ( `COCCl` ), measured log10 vapour pressure (mmHg) is 1.48

For this molecule ( `C=C(C)C(C)(C)C` ), measured log10 vapour pressure (mmHg) is 2.05

For this molecule ( `CO/C=C(/C(=O)OC)c1ccccc1Oc1cc(Oc2ccccc2C#N)ncn1` ), measured log10 vapour pressure (mmHg) is -12.1

====

measured quantity: melting point (°C)
Give just the numeric value; °C need not be written.

Study these solved cases before continuing.
smi	melting point / °C
O=C(O)CCCCl	16
Cc1cn([C@H]2CC[C@@H](CO)O2)c(=O)[nH]c1=O	156
CC=Cc1ccc(OCC)c(O)c1	87
Clc1cc(Cl)c(Cl)c(Cl)c1Cl	86
C1COC1	-97
CC(C)C(C)(C)C	-25

For this compound ( `CC(C)(C)c1ccc(CCOc2ncnc3ccccc23)cc1` ), measured melting point is 78.5

For this compound ( `CC(C)(C)c1cc(C(C)(C)C)c(O)c(C(C)(C)C)c1` ), measured melting point is 131

For this compound ( `C=CCNC(N)=O` ), measured melting point is 85

For this compound ( `N#CCC(=O)c1ccccc1` ), measured melting point is 80.5

For this compound ( `CON(C)C(=O)Nc1ccc(Cl)cc1` ), measured melting point is 81.5

====

Reported log10 Koc (L/kg) values for the following compounds.
Number only, please.

Study these solved cases before continuing.
smi	log10 Koc (L/kg)
Nc1cc2c3ccccc3ccc2c2ccccc12	5.21
Ic1ccccc1	3.1
O=C(O)COc1ccc(Cl)cc1Cl	1.66

For this compound ( `Cc1ccc2ccccc2c1` ), measured log10 Koc (L/kg) is 3.6

====

measured quantity: melting point (°C)
Give just the numeric value; °C need not be written.

compound	melting point [°C]
O=Nc1ccccc1	68.5
O=C(Nc1ccccc1)Nc1ccccc1	239

For this compound ( `CCCCCCCCCCCCCCCCCCC` ), measured melting point is 32.1

For this compound ( `Cc1cc(O)ccc1Br` ), measured melting point is 63.5

For this compound ( `O=C(CCl)OCCOC(=O)CCl` ), measured melting point is 45.5

For this compound ( O=C(c1ccccc1)C(O)c1ccccc1 (racemic) ), measured melting point is 137

For this compound ( CN1C(CSCC(F)(F)F)Nc2cc(Cl)c(S(N)(=O)=O)cc2S1(=O)=O (stereo not given) ), measured melting point is 214

For this compound ( `Cc1cc(N)ccc1Cl` ), measured melting point is 83.5

For this compound ( `CCCCCCCCCCCCCCCCCCCCCCCCCCCCCCCC` ), measured melting point is 69.7

For this compound ( `COc1ccc2c(c1OC)C(=O)O[C@@H]2[C@H]1c2c(cc3c(c2OC)OCO3)CCN1C` ), measured melting point is 176

====

Reported boiling point values for the following compounds.
Give just the numeric value; °C need not be written.

compound	endpoint unit	boiling point
Cc1ccc(O)cc1	°C	202
ClCC(Cl)(CCl)CCl	°C	211

For this compound ( FC(F)C(F)(F)C(F)Cl (stereo not drawn) ), measured boiling point is 28.1

For this compound ( `C=CC[C@H](O)CCC` ), measured boiling point is 152

For this compound ( `Cc1cc(N)ccc1Br` ), measured boiling point is 240

For this compound ( `CC(=O)C#N` ), measured boiling point is 92.3

For this compound ( `O=C(O)CCCCCCC(=O)O` ), measured boiling point is 346

For this compound ( `OC[C@@H](O)[C@@H](O)CO` ), measured boiling point is 330

For this compound ( `CCCOCOCCC` ), measured boiling point is 140

For this compound ( `CCCCN(CC)C(=O)SCCC` ), measured boiling point is 202

For this compound ( `FC(Cl)=C(Cl)Cl` ), measured boiling point is 71

For this compound ( `c1ccc2cnncc2c1` ), measured boiling point is 316

For this compound ( `c1ccc(-c2coc(-c3ccccc3)n2)cc1` ), measured boiling point is 339

For this compound ( CC(Br)CCBr (stereo not drawn) ), measured boiling point is 174

For this compound ( `CCNC(C)=O` ), measured boiling point is 205

For this compound ( `CC(=O)CC(=O)C(F)(F)F` ), measured boiling point is 106

For this compound ( `OCCN1CCCCC1` ), measured boiling point is 202

For this compound ( `Cc1ccc(Cc2ccc(C)cc2)cc1` ), measured boiling point is 286

For this compound ( `CC(C)CC(=O)OC(=O)CC(C)C` ), measured boiling point is 215

====

- condition set: fish
Reported log10 BCF values for the following molecules.
Number only, please.

For this molecule ( `CCc1nn(C)c(C(=O)NCc2ccc(C(C)(C)C)cc2)c1Cl` ), measured log10 BCF is 1.15

====

Reported melting point values for the following molecules.

molecule	melting point
C/C(=C\c1ccccc1)C(=O)O	80 °C
COc1ccc(C(=O)CC(=O)c2ccc(C(C)(C)C)cc2)cc1	83.5 °C
CCOc1cccc(OCC)c1	12.4 °C
CCCCCCNC(=O)COC(=O)c1ccccc1	130 °C
OC[C@@H]1CCCN2CCCC[C@H]12	70 °C
ClC(COCC(Cl)C(Cl)(Cl)Cl)C(Cl)(Cl)Cl (centres undefined)	-50 °C
CCCCCC(=O)OCCCC	-64.3 °C
O=S(c1ccccc1)c1ccccc1	71.2 °C

For this molecule ( `OCCCCCCCCO` ), measured melting point is 63 °C

For this molecule ( `FC(F)C(F)F` ), measured melting point is -89 °C

For this molecule ( `N=C(N)N1CCc2ccccc2C1` ), measured melting point is 279 °C

For this molecule ( `CCCCCC(=O)Nc1ccccc1` ), measured melting point is 95 °C

For this molecule ( `O=[N+]([O-])c1ccc(Cl)cc1O` ), measured melting point is 41 °C

For this molecule ( `O=C(O)c1ccc2c(c1)CCCC2` ), measured melting point is 156 °C
